- tested_on: Prostacyclin receptor (Homo sapiens)
- Sequence (P43119 whole entry): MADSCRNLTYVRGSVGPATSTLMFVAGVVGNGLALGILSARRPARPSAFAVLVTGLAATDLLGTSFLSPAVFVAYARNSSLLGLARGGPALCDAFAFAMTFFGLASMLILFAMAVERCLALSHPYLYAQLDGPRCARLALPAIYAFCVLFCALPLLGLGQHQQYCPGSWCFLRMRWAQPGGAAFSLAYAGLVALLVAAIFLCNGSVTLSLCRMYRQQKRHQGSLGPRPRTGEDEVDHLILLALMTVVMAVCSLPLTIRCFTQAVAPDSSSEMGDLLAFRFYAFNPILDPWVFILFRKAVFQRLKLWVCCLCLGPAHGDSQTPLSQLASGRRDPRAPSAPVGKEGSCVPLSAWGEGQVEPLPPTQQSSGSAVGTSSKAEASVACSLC
- run_description: Displacement of [3H]iloprost from IP receptor in human platelet membrane
- Assay type: cell membranes
metric: pIC50
Answers are plain numbers, as −log10 of the molar value.

Below are worked cases with known answers.
| molecular_string | pIC50 |
| --- | --- |
| CC(=O)Nc1cccc(-c2ccc(Cc3ocnc3C(=O)NCc3ccccc3)cc2)c1 | 6.25 |
| CC(=O)Nc1cccc(-c2ccc(Cc3ocnc3C(=O)N(C)C)cc2)c1 | 4.91 |
| CC(=O)Nc1cccc(-c2ccc(Cc3ocnc3C(=O)NC[C@H](C)c3ccccc3)cc2)c1 | 7.28 |

q: // lookup pIC50 | system=Prostacyclin receptor (Homo sapiens) | key= "CNC(=O)c1ncoc1Cc1ccc(-c2cccc(NC(C)=O)c2)cc1"
a: 4.91
